Listing of recorded melting point by entry.

Cc1ccc(Cl)cc1NC(=O)N1CCCN(Cc2nc3ccccc3c(=O)[nH]2)CC1: 186.6 to 187.9 °C
Cc1ccc(Cl)cc1NC(=O)N1CCCN(Cc2nc3ccccc3c(=O)[nH]2)C1: 197.3 to 198.7 °C
Cc1ccc(Cl)cc1NC(=O)N1C[C@@H]2C[C@H]1CN2Cc1nc2ccccc2c(=O)[nH]1: 191.1 to 192.4 °C

Inquiry: Returns the measured melting point for the input molecule. Input: O=C(Nc1ccc(Br)cc1)N1CCN(Cc2nc3ccccc3c(=O)[nH]2)CC1
Reply text: 187.8 to 188.9 °C

Inquiry: Any idea what melting point was measured for Cc1cc(C)cc(NC(=O)N2CCN(Cc3nc4ccccc4c(=O)[nH]3)CC2)c1 ?
Reply text: 201.5 to 203.3 °C

Inquiry: Which melting point is reported for this molecule? COc1cccc(NC(=O)N2CCN(Cc3nc4ccccc4c(=O)[nH]3)CC2)c1
Reply text: 186.3 to 188.5 °C

Inquiry: Quick check: melting point of O=C(Nc1cccc(C(F)(F)F)c1)N1CCN(Cc2nc3ccccc3c(=O)[nH]2)CC1 ?
Reply text: 197.8 to 200.3 °C

Data credit: paper PMC10974284
